B1: TPR t1 (parent)
chain: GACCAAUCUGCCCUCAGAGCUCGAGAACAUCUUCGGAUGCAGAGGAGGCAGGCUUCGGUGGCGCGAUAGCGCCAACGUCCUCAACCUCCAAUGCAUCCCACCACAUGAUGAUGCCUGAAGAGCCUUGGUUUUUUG

Variants of: B1
Assay: polymerase ribozyme fitness, log enrichment relative to wild type (log ratio); higher = more active; in vitro selection for triplet polymerase activity
# polymerase ribozyme fitness (log ratio) per record follows
# respond with the number and nothing more

variant spec: A6C C70U
polymerase ribozyme fitness (log ratio): -0.65

variant spec: U38A G48U G110A
polymerase ribozyme fitness (log ratio): -3.21

variant spec: C104U U133C
polymerase ribozyme fitness (log ratio): 0.657

variant spec: G69A A91C
polymerase ribozyme fitness (log ratio): -5.04

variant spec: G17U C20A C49U
polymerase ribozyme fitness (log ratio): -5.73

variant spec: G61C G107A
polymerase ribozyme fitness (log ratio): -6.66

variant spec: C4A A29G C88A
polymerase ribozyme fitness (log ratio): -3.39

variant spec: U14G C15A
polymerase ribozyme fitness (log ratio): -3.45

variant spec: C34A C64G
polymerase ribozyme fitness (log ratio): -6.42

variant spec: C15A C72G C104U
polymerase ribozyme fitness (log ratio): -1.9

Task: Identify the reported polymerase ribozyme fitness (log ratio) for the following entry. C62U G113C G127C
Result: -3.6

Task: Using known records, supply polymerase ribozyme fitness (log ratio) for A6U C40G A50U
Result: -1.66

Task: Give the reported value of polymerase ribozyme fitness (log ratio) for this record: C53G C70A G117A
Result: -3.42

Task: Tell me measured polymerase ribozyme fitness (log ratio) for G61U A91G G93A A105U G117U please.
Result: -6.5

Task: Tell me polymerase ribozyme fitness (log ratio) reported for A41C G48A G60U
Result: -1.76
